target: plasma kallikrein (Homo sapiens); construct: PFR-AMC substrate; experiment: Neat Human Plasma Assay (Fluorogenic Peptide), contact pathway-activated (FXIIa) plasma; type: biochemical; settings: human citrated plasma 78% final; 10 nM human FXIIa; PFR-AMC substrate; 5 minutes; room temperature
Sequence (P03952 20-638): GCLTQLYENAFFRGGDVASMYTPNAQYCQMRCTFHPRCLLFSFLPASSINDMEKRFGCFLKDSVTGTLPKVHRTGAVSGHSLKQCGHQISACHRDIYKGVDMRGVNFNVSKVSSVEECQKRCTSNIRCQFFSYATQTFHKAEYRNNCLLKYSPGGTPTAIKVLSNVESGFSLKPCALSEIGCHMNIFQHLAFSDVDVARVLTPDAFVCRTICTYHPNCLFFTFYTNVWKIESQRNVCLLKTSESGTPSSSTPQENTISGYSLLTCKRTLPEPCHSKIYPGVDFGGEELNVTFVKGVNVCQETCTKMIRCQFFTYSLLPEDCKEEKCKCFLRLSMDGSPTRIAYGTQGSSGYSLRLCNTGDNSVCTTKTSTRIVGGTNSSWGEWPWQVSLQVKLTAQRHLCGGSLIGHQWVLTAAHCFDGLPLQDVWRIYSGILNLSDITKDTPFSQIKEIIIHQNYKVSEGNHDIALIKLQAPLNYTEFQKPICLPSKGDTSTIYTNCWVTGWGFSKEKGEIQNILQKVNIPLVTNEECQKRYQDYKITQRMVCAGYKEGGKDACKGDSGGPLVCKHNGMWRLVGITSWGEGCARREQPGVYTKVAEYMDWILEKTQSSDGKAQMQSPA
observable: IC90

# compound.string, IC90
measured = [
    ("Cc1cc2c(N)nccc2c(C)c1CNc1nccnc1NCc1cn2cc(C3CC3)ccc2n1", "1000 to 5000 nM"),
    ("Cc1cc2c(N)nccc2c(C)c1CNc1cc(OCc2cc3cc(C4CC4)cc(CC(C)(C)C(N)=O)n3n2)ncn1", "1000 to 5000 nM"),
]

Please examine the following record next.
Per the records, this compound ( "Cc1cnc2ccc(COc3cnnc(NCc4c(C)cc5c(N)nccc5c4C)c3)cc2c1" ) has IC90 equal to 1000 to 5000 nM

* * *

molecular target: human activated kallikrein enzyme (Homo sapiens, UniProt P03952); assay: Inhibition of human activated plasma kallikrein, fluorogenic PFR-AMC substrate, 500 pM enzyme format; format: biochemical; conditions: 500 pM activated kallikrein; 300 μM PFR-AMC; 30 min preincubation; 10 min room temperature; pH 7.5; read-out: Primary Dose Response Assay: Average EC50
Sequence (P03952 391-638 limits assumed): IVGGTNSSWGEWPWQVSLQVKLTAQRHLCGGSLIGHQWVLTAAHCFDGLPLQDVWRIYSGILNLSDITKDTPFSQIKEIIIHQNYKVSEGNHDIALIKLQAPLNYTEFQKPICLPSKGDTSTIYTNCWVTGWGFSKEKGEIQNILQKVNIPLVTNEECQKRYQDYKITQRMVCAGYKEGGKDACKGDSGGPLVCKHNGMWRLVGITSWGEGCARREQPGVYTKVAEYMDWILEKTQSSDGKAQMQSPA
Sequence (P03952 20-390 partner limits assumed): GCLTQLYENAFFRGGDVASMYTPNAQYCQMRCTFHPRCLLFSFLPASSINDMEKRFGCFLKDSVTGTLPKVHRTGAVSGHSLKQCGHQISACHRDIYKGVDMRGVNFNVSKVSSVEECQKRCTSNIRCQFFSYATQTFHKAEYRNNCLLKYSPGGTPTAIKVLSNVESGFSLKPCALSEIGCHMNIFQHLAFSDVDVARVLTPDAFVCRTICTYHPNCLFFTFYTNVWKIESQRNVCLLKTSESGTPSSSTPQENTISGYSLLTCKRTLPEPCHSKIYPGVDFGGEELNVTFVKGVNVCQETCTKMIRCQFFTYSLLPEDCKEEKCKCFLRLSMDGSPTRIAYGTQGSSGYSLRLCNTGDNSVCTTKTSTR
pEC50: −log10 of the molar value.
observable: pEC50

Example compounds with recorded pEC50:
# compound, pEC50
measured = [
    ("Cc1cc2c(N)nccc2c(C)c1CNc1cc(OCc2cnc3ccc(C4CC4)cc3c2)ncn1", "8.00 to 9.00"),
    ("Cc1cc2c(N)nccc2c(C)c1CNc1cc(OCc2ccc(Cn3ccccc3=O)cc2)c(Cl)cn1", "8.00 to 9.00"),
    ("Cc1ccc2ncc(COc3cnnc(NCc4c(C)cc5c(N)nccc5c4C)c3)cc2c1", "> 9.00"),
    ("Cc1cc2c(N)nccc2c(C)c1CNC(=O)c1cnn(Cc2cnc3c(C)cccc3c2)c1", "> 9.00"),
    ("Cc1cc2c(N)nccc2c(C)c1CNc1cc(NCc2ccc(Cn3cccn3)c(C(F)(F)F)c2)ncn1", "> 9.00"),
    ("Cc1cc2c(N)nccc2c(C)c1CNc1cc2c(Cc3ccc4ccccc4c3)c[nH]c2cn1", "< 6.00"),
    ("Cc1cc2c(N)nccc2cc1CNc1cc(OCc2ccc(Cn3cccn3)cc2)ncn1", "7.00 to 8.00"),
    ("CNC(=O)Cc1ccc(Cn2cc(C(=O)NCc3c(C)cc4c(N)nccc4c3C)cn2)cc1", "> 9.00"),
]

Please supply pEC50 for each of the following items, keeping them in order.
1. Cc1cc2c(N)nccc2c(C)c1CNC(=O)c1cn(Cc2ccc(CC(=O)N3CC4CC4C3)cc2)nc1F (stereo not shown)
2. Cc1cc2c(N)nccc2c(C)c1CNC(=O)c1cnn(Cc2ccc(CC(=O)N(C)CC3CC3)cc2)c1
3. Cc1cc2c(N)nccc2c(C)c1CNc1cc(OC(C)c2cn3nc(C4CC4)ccc3n2)ncn1 (stereo not shown)
4. Cc1cc2c(N)nccc2c(C)c1CNc1cc(OC(C)c2ccc(Cn3cccn3)cc2)cnn1 (single isomer, unassigned) [Example 276]

**A:**
> 9.00
8.00 to 9.00
7.00 to 8.00
> 9.00

Please supply pEC50 for each of the following items, keeping them in order.
1. Cc1cc2c(N)nccc2c(C)c1CNc1cc(N(Cc2cn3nc(C4CC4)ccc3n2)CC(F)(F)F)ncn1
2. Cc1cc2c(N)nccc2c(C)c1CNc1cc2c(cn1)cnn2Cc1cn2cc(C3CC3)ccc2n1

**A:**
["7.00 to 8.00", "> 9.00"]

Please supply pEC50 for each of the following items, keeping them in order.
1. Cc1cc2c(N)nccc2c(C)c1CNc1cc(OCc2cn3nc(C4CC4)ccc3n2)ncn1
2. CCOC(=O)Nc1nccc2c(C)c(CNc3cc(NCc4ccc(Cn5ccccc5=O)cc4)ncn3)c(C)cc12

**A:**
1. > 9.00
2. 7.00 to 8.00

Hey, just so you know, these numbers are from patent US20260374754A1.
